- ASSAYED_SYSTEM: F508delCFTR (Homo sapiens, UniProt P13569, DEL508-508)
- Construct: expressed in transfected cells; host or cells: CFBE41o- human lung derived epithelial cells (CFBE41o-F508delCFTR-HRP), doxycycline-inducible
- Sequence (P13569 with tags, fused parts or gaps DEL508-508): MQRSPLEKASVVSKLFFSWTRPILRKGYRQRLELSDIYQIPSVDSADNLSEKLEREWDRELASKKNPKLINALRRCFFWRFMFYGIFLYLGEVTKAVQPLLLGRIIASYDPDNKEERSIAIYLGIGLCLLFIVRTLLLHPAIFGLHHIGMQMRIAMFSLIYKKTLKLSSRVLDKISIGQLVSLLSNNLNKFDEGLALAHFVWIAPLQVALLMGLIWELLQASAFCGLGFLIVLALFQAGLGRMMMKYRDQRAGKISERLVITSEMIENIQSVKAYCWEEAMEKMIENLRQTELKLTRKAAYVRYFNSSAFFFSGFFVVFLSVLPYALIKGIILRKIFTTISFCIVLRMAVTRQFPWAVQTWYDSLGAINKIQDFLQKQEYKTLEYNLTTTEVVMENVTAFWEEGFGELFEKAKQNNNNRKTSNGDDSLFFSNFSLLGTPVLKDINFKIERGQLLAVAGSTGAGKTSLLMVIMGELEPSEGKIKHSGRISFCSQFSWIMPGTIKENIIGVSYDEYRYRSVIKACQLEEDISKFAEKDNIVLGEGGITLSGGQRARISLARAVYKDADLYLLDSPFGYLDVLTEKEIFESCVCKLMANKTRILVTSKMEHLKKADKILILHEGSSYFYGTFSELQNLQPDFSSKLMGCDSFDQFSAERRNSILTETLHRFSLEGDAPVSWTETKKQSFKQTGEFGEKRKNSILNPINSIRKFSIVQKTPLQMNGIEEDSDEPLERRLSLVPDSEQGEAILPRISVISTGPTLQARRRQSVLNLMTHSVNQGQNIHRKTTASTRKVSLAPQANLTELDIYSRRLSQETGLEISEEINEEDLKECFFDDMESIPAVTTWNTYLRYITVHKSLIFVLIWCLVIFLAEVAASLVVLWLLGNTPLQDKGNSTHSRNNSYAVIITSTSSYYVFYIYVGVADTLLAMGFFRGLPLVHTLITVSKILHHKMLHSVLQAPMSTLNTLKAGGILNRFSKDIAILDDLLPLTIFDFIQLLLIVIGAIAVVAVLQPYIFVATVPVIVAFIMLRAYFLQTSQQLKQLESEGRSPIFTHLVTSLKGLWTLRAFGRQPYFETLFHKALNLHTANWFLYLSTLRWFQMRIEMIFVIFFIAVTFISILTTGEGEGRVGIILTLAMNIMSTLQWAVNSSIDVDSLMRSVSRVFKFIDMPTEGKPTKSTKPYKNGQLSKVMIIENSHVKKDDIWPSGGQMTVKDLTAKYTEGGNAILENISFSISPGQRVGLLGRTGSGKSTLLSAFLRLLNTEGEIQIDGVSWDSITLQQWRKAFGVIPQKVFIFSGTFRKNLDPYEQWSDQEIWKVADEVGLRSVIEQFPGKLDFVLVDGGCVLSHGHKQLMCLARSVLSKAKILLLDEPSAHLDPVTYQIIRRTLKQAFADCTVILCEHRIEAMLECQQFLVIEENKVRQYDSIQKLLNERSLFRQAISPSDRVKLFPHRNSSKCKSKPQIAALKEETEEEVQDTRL
- TEST: Cell Surface Expression-Horse Radish Peroxidase (CSE-HRP) Assay;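 further: % of on-plate positive control chromenyl benzoic acid corrector at 2 or 3 µM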
- Type: cell-based
- COND: without co-corrector; maximum at any tested concentration; read-out: Maximum % activity (without co-corrector)
Attribute: Emax

{"columns": ["MOLECULAR_STRING", "REPORTED_RESULT"],
 "data": [
  ["COc1ccc(C)nc1C1(C(=O)NS(=O)(=O)c2cccc3ccccc23)CC1", "> 150%"]
]}

// next entry
**Q:** Consider the compound COc1ccc(C2CCC2)cc1C1(C(=O)NS(=O)(=O)c2cccc3cnn(C)c23)CCC1 and give its measured Emax.
**A:** > 150%

The reported measurements were obtained from patent US10829473B2.
